Values were extracted from patent US8692014B2.

Test: Hygroscopicity: water uptake and onset of deliquescence in closed chamber at 75-84% relative humidity
Type: physicochemical
Conditions: 75-84% relative humidity over saturated ammonium sulfate solution, ca. 25° C.
Method: Samples of methyl 5-amino-4-oxopentanoate hydrochloride, methanesulfonate, and toluenesulfonate were weighed and kept in 30 ml plastic cups in a closed chamber at 75-84% relative humidity over saturated ammonium sulfate solution at ambient temperature (ca. 25° C.). The samples were then weighed after different intervals of time to monitor water uptake. The appearance of the samples was also checked at the same time to determine the onset of deliquescence. […]
readout.type: onset of deliquescence (h)

Sample answers from the record:
Recorded result, COC(=O)CCC(=O)CN.CS(=O)(=O)O , onset of deliquescence: 22

So for Cl.NCC(=O)CCC(=O)O [reference compound] , the logged onset of deliquescence turned out to be 22.5

1. CCCCCCOC(=O)CCC(=O)CN.Cl [reference compound]
2. COC(=O)CCC(=O)CN.Cl [reference compound]
Asked: Of the two listed items, which has the higher onset of deliquescence? First: 1 Second: 2 Kindly state the label of the option you pick.
Given back: 2
